target: human KDR (VEGF-receptor-2) (Homo sapiens, UniProt P35968); construct: beginning at Met-806; (5′-ATG GAT CCA GAT GM CTC CCA TTG) and ending at Val-1356; made in house; assay: KDR kinase enzyme assay (DELFIA, KDR-IC-Flag, poly(Glu4-Tyr) peptide); format: biochemical; details: Concentration 1000 nM; ATP conc. 1000 μM; read-out: % Inhibition
measurement-type: inhibition at 1 µM (%)
Dear colleague, please return just the value in %, with no unit written.

Example entries and their recorded answers appear below.
compound: CCC1=CC(=O)C(Nc2ncnc3cc(OC)c(OC)cc23)=CC1=O [Example 8]
target: human KDR (VEGF-receptor-2) (Homo sapiens, UniProt P35968)
inhibition at 1 µM, %: 80
//
compound: COCCOc1cc2ncnc(NC3=CC(=O)C(Sc4ccccc4)=CC3=O)c2cc1OC [Example 24]
target: human KDR (VEGF-receptor-2) (Homo sapiens, UniProt P35968)
inhibition at 1 µM, %: 96
//
compound: COCCOc1cc2ncnc(NC3=CC(=O)C(Oc4ccc(C(F)(F)F)cc4)=CC3=O)c2cc1OC [Example 36]
target: human KDR (VEGF-receptor-2) (Homo sapiens, UniProt P35968)
inhibition at 1 µM, %: 98

(Q) Specify the recorded inhibition at 1 µM for COCCOc1cc2ncc(C#N)c(NC3=CC(=O)C(Oc4ccccc4)=CC3=O)c2cc1OC [Example 71] , system: human KDR (VEGF-receptor-2) (Homo sapiens, UniProt P35968).
(A) 58

(Q) Fill: inhibition at 1 µM (human KDR (VEGF-receptor-2) (Homo sapiens, UniProt P35968)) for this compound COc1cc2ncnc(NC3=CC(=O)C(N(C)C)=CC3=O)c2cc1OC [Example 88]
(A) 48

(Q) State inhibition at 1 µM on human KDR (VEGF-receptor-2) (Homo sapiens, UniProt P35968). Entry: COCCOc1cc2ncnc(NC3=CC(=O)C(Oc4ccccc4C)=CC3=O)c2cc1OC [Example 90]
(A) 96

(Q) Report inhibition at 1 µM on human KDR (VEGF-receptor-2) (Homo sapiens, UniProt P35968) for this entry: COc1cc2ncnc(NC3=CC(=O)C(c4ccccc4)=CC3=O)c2cc1OC [Example 99]
(A) 96

(Q) Using human KDR (VEGF-receptor-2) (Homo sapiens, UniProt P35968) as the test system, report measured inhibition at 1 µM of COc1cc2ncnc(NC3=CC(=O)C(Nc4ccccc4)=CC3=O)c2cc1OC [Example 86] .
(A) 96

(Q) // output inhibition at 1 µM; input COCCOc1cc2ncnc(NC3=CC(=O)C(Oc4cccnc4)=CC3=O)c2cc1OC [Example 91] ; system human KDR (VEGF-receptor-2) (Homo sapiens, UniProt P35968)
(A) 97

(Q) Supply inhibition at 1 µM measured with human KDR (VEGF-receptor-2) (Homo sapiens, UniProt P35968) for COCCOc1cc2ncnc(NC3=CC(=O)C(N(C)c4ccc(N(C)C)cc4)=CC3=O)c2cc1OC [Example 75] .
(A) 93

(Q) Lab note: record inhibition at 1 µM of COc1cc2ncnc(NC3=CC(=O)C(Oc4ccccc4)=CC3=O)c2cc1OC [Example 95] tested on human KDR (VEGF-receptor-2) (Homo sapiens, UniProt P35968).
(A) 98

(Q) Enter inhibition at 1 µM (test system human KDR (VEGF-receptor-2) (Homo sapiens, UniProt P35968)) for COCCOc1cc2ncnc(NC3=CC(=O)C(Oc4cccc(C(C)=O)c4)=CC3=O)c2cc1OC [Example 34]
(A) 97

(Q) Answer briefly: inhibition at 1 µM recorded on human KDR (VEGF-receptor-2) (Homo sapiens, UniProt P35968) for COCCOc1cc2ncnc(NC3=C(SCc4ccccc4)C(=O)C=C(OC)C3=O)c2cc1OC [Example 19]
(A) 88

(Q) # return inhibition at 1 µM for COCCOc1cc2ncc(C#N)c(NC3=CC(=O)C(Oc4ccc(-n5ccnc5)cc4)=CC3=O)c2cc1OC [Example 72] , test system: human KDR (VEGF-receptor-2) (Homo sapiens, UniProt P35968)
(A) 94

(Q) Give inhibition at 1 µM; test system human KDR (VEGF-receptor-2) (Homo sapiens, UniProt P35968); compound COCCOc1cc2ncnc(NC3=CC(=O)C(Oc4ccc(C)cc4)=CC3=O)c2cc1OC [Example 92]
(A) 97

(Q) Please look at COCCOc1cc2ncnc(NC3=CC(=O)C4(C)OC4C3=O)c2cc1OC (stereo not drawn) [Example 106] and tell me its recorded inhibition at 1 µM on human KDR (VEGF-receptor-2) (Homo sapiens, UniProt P35968).
(A) 70

(Q) Report inhibition at 1 µM under test system human KDR (VEGF-receptor-2) (Homo sapiens, UniProt P35968) for COCCOc1cc2ncnc(NC3=CC(=O)C(Sc4nccs4)=C(OC)C3=O)c2cc1OC [Example 20] .
(A) 97

(Q) Would you please give the reported inhibition at 1 µM of COc1cc2ncnc(NC3=CC(=O)C(N(C)c4ccccc4)=CC3=O)c2cc1OC [Example 85] with human KDR (VEGF-receptor-2) (Homo sapiens, UniProt P35968)?
(A) 64

(Q) Given COc1cc2ncnc(NC3=CC(=O)C(Oc4ccc(Cl)cc4)=CC3=O)c2cc1OC [Example 94] , report its inhibition at 1 µM on human KDR (VEGF-receptor-2) (Homo sapiens, UniProt P35968).
(A) 96

(Q) Give inhibition at 1 µM; test system human KDR (VEGF-receptor-2) (Homo sapiens, UniProt P35968); compound CNC1=CC(=O)C(Nc2ncnc3cc(OC)c(OC)cc23)=CC1=O [Example 89]
(A) -12

(Q) Give measured inhibition at 1 µM for COCCOc1cc2ncnc(NC3=CC(=O)C(Oc4cccc(C#N)c4)=CC3=O)c2cc1OC [Example 27] (human KDR (VEGF-receptor-2) (Homo sapiens, UniProt P35968)).
(A) 98

(Q) Report value: inhibition at 1 µM, system: human KDR (VEGF-receptor-2) (Homo sapiens, UniProt P35968), compound: COc1cc2ncnc(NC3=CC(=O)C(N4CCCCC4)=CC3=O)c2cc1OC [Example 87]
(A) 85

(Q) Report its inhibition at 1 µM with human KDR (VEGF-receptor-2) (Homo sapiens, UniProt P35968) as the test system: COCCOc1cc2ncnc(NC3=CC(=O)C(N(C)c4ccc(OC)c(OC)c4)=CC3=O)c2cc1OC [Example 73]
(A) -2

(Q) Name the value of inhibition at 1 µM reported for COCCOc1cc2ncnc(NC3=CC(=O)C(N(C)Cc4ccccc4)=CC3=O)c2cc1OC [Example 82] when tested on human KDR (VEGF-receptor-2) (Homo sapiens, UniProt P35968).
(A) 45

(Q) Enter inhibition at 1 µM (test system human KDR (VEGF-receptor-2) (Homo sapiens, UniProt P35968)) for COCCOc1cc2ncnc(NC3=CC(=O)C(N(C)c4cccc(F)c4)=CC3=O)c2cc1OC [Example 74]
(A) 84

====

Reported inhibition at 0.1 µM is given for each of the following molecules.
biological target: human KDR (VEGF-receptor-2) (Homo sapiens, UniProt P35968); construct: beginning at Met-806; (5′-ATG GAT CCA GAT GM CTC CCA TTG) and ending at Val-1356; made in house; test: KDR kinase enzyme assay (DELFIA, KDR-IC-Flag, poly(Glu4-Tyr) peptide); assay type: biochemical; settings: Concentration 100 nM; ATP conc. 10 μM; read-out: % Inhibition
Please respond with the number in % and leave the unit unwritten.

molecule: COCCOc1cc2ncnc(NC3=CC(=O)C(Oc4ccc(CCN)cc4)=CC3=O)c2cc1OC [Example 54]
unit-tag: %
value: -2

(Q) Provide only the value of recorded inhibition at 0.1 µM for COc1cc2ncnc(NC3=CC(=O)C(C(C)C)=CC3=O)c2cc1OC [Example 9]
(A) 24

(Q) Consider the molecule COCCOc1cc2ncnc(NC3=CC(=O)C(Oc4ccc(C(=O)c5ccccc5)cc4)=CC3=O)c2cc1OC [Example 39] and give its recorded inhibition at 0.1 µM.
(A) 91

(Q) Tell me measured inhibition at 0.1 µM for COCCOc1cc2ncnc(NC3=C(SCc4ccccc4)C(=O)C=C(OC)C3=O)c2cc1OC [Example 19] please.
(A) 41

====

Readings of inhibition at 1 µM for the listed compounds
target: KDR (Homo sapiens); assay: cell-based; conditions: read-out: % Inhibition of KDR kinase autophosphorylation in KDR15 cells, compound conc. 1000 nM
Sequence (P35968 20-1356): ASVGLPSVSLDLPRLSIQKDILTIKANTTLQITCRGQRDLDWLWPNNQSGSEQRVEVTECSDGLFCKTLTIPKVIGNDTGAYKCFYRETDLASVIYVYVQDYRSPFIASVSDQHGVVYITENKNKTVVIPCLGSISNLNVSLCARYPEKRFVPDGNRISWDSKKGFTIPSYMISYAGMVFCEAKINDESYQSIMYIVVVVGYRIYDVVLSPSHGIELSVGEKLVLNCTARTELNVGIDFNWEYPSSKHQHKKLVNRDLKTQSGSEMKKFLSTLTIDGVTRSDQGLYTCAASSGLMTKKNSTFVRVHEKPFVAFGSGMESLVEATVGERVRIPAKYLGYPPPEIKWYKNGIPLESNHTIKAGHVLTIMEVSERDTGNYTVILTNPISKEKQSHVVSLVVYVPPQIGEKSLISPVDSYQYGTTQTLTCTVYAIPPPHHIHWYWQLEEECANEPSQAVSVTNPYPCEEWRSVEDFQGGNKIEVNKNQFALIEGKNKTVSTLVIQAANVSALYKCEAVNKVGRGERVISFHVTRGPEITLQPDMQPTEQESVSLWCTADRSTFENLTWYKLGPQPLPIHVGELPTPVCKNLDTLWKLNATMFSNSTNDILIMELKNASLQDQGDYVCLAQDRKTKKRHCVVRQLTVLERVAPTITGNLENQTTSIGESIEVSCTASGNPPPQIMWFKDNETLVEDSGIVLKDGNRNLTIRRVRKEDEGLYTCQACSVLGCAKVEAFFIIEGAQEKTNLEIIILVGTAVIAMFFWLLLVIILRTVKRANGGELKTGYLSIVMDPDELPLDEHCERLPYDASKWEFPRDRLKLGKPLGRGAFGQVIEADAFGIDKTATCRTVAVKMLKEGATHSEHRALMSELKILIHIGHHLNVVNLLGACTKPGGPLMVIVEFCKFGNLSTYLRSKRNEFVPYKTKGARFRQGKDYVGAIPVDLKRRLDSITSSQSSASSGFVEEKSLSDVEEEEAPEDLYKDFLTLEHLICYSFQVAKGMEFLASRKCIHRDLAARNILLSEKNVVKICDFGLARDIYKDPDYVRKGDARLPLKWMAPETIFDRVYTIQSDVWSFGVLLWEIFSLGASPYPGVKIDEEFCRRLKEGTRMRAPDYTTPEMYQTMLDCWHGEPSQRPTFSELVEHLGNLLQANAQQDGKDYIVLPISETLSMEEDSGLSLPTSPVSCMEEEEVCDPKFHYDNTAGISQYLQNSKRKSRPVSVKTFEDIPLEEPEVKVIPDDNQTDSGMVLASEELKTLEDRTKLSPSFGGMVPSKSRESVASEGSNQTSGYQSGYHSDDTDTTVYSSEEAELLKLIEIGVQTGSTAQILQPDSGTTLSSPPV

Here is how some compounds turned out for inhibition at 1 µM.
compound: COCCOc1cc2ncnc(NC3=CC(=O)C(Oc4ccc5c(c4)[nH]c4ccccc45)=CC3=O)c2cc1OC
measurement-type: inhibition at 1 µM
value: 120%
//
compound: COCCOc1cc2ncnc(NC3=CC(=O)C(N(C)c4cccc(F)c4)=CC3=O)c2cc1OC
measurement-type: inhibition at 1 µM
value: 4%
//
compound: COCCOc1cc2ncnc(NC3=CC(=O)C(N(C)c4ccc(N(C)C)cc4)=CC3=O)c2cc1OC
measurement-type: inhibition at 1 µM
value: 45%
//
compound: COCCOc1cc2ncnc(NC3=CC(=O)C(Oc4ccc(CCN)cc4)=CC3=O)c2cc1OC
measurement-type: inhibition at 1 µM
value: -5%
//
compound: COCCOc1cc2ncnc(NC3=CC(=O)C(Sc4ccccc4)=CC3=O)c2cc1OC
measurement-type: inhibition at 1 µM
value: 0%

(Q) Give reported inhibition at 1 µM value for COCCOc1cc2ncnc(NC3=CC(=O)C(Oc4ccc(C(=O)OCc5ccccc5)cc4)=CC3=O)c2cc1OC
(A) 74%

(Q) Tell us which inhibition at 1 µM value is on record for COCCOc1cc2ncnc(NC3=CC(=O)C(Oc4cccc(OC)c4)=CC3=O)c2cc1OC
(A) 35%
